- ASSAY_DETAILS: Nuclear factor erythroid 2-related factor 2/antioxidant responsive element (Nrf2/ARE) small molecule agonists: luciferase reporter gene qHTS assay in human keratinocytes (AID 1919969); note: nearly all actives have a fitted effect of over 35% in size
- STUDY_CONDITIONS: KeratinoSens HaCaT ARE-luciferase, luminescence, 24 h; series mostly up to 92.4 µM
Results filed as inconclusive are left out. The source made the active and inactive calls. Calls come from the whole dose curve.
// one of yes (1) = active, no (0) = inactive, no free text

A selection of reference data follows.
                                   molecule  class_name
0  COc1ccccc1Oc1c(NS(=O)(=O)c2ccc(C(C)(C)C)cc2)nc(-c2ncccn2)nc1OCCO     yes (1)
1  COc1ccc([C@@H]2Sc3ccccc3N(CCN(C)C)C(=O)[C@@H]2OC(C)=O)cc1      no (0)
2                 COc1ccc(Nc2ccc(OC)cc2)cc1     yes (1)
3  C[N+]12CCC(CC1)C(OC(=O)C(O)(c1ccccc1)c1ccccc1)C2 (stereo unspecified)      no (0)
4                         COC(=O)c1ccccc1Cl      no (0)

Q. Hey, what did the test say about "CCOC(=O)N1CCC(n2c(=O)[nH]c3cc(Cl)ccc32)CC1" ?
A. no (0)
